Reported pKi, NK1 receptor (Homo sapiens, UniProt P25103).
Answers are plain numbers, as −log10 of the molar value.

# count of solved cases: 2
compound: C[C@@H](OC[C@@]1(c2ccccc2)C[C@H]2OC(=O)NC2CN1)c1cc(C(F)(F)F)cc(C(F)(F)F)c1 (stereo partly drawn)
pKi: 9.55

compound: C[C@@H](OC[C@@]1(c2ccccc2)CC[C@@H]2NC(=O)CCC2N1)c1cc(C(F)(F)F)cc(C(F)(F)F)c1 (stereo partly drawn)
pKi: 9.52

Okay, now this compound:
Task item: Would you mind telling me what pKi value was observed for C[C@@H](OC[C@@]1(c2ccccc2)CC[C@@H]2NC(=O)CC2N1)c1cc(C(F)(F)F)cc(C(F)(F)F)c1 (stereo partly drawn) ?
Reply: 9.64
